FYI, the data here is from patent US9308179B2.

- Test summary: Pharmacokinetics of docetaxel nanoparticles in primates
- Assay type: in vivo, non human primates
- Conditions used: female, monkey, in vivo; 25 mg/m2, F, 30 minute IV infusion
Recorded endpoint: half-life (h)
The figure you give is taken to be in h; do not add the unit.

Noted for CC(=O)O[C@@]12CO[C@@H]1C[C@H](O)[C@@]1(C)C(=O)[C@H](O)C3=C(C)[C@@H](OC(=O)[C@H](O)[C@@H](NC(=O)OC(C)(C)C)c4ccccc4)C[C@@](O)([C@@H](OC(=O)c4ccccc4)[C@H]21)C3(C)C [Conventional Docetaxel, docetaxel] : its half-life reads 31

====

- Test summary: Pharmacokinetics of docetaxel nanoparticles in primates
- Type: in vivo, non human primates
- Conditions used: female, monkey, plasma; 25 mg/m2, F, 30 minute IV infusion
Recorded endpoint: Cmax (µg/mL)
Hi! Could you send only the number? It should be in µg/mL, unit omitted.

For reference, reported Cmax for CC(=O)O[C@@]12CO[C@@H]1C[C@H](O)[C@@]1(C)C(=O)[C@H](O)C3=C(C)[C@@H](OC(=O)[C@H](O)[C@@H](NC(=O)OC(C)(C)C)c4ccccc4)C[C@@](O)([C@@H](OC(=O)c4ccccc4)[C@H]21)C3(C)C [Conventional Docetaxel, docetaxel] stands at 0.596

====

- Test summary: Pharmacokinetics of docetaxel nanoparticles in primates
- Assay type: in vivo, non human primates
- Conditions used: female, monkey, in vivo; 50 mg/m2, F, 30 minute IV infusion
Recorded endpoint: half-life (h)
Give a bare numeral; the unit h is implied.

// `CC(=O)O[C@@]12CO[C@@H]1C[C@H](O)[C@@]1(C)C(=O)[C@H](O)C3=C(C)[C@@H](OC(=O)[C@H](O)[C@@H](NC(=O)OC(C)(C)C)c4ccccc4)C[C@@](O)([C@@H](OC(=O)c4ccccc4)[C@H]21)C3(C)C` : half-life value = 39

====

- Test summary: Pharmacokinetics of docetaxel nanoparticles in primates
- Assay type: in vivo, non human primates
- Conditions used: male, monkey, plasma; 25 mg/m2, M, 30 minute IV infusion; read-out: AUC
Recorded endpoint: AUC (ng·h/mL)
Answer format: numeric, ng·h/mL implied, no suffix.

# AUC (compound: `CC(=O)O[C@@]12CO[C@@H]1C[C@H](O)[C@@]1(C)C(=O)[C@H](O)C3=C(C)[C@@H](OC(=O)[C@H](O)[C@@H](NC(=O)OC(C)(C)C)c4ccccc4)C[C@@](O)([C@@H](OC(=O)c4ccccc4)[C@H]21)C3(C)C` ) is 2550

====

- Test summary: Pharmacokinetics of docetaxel nanoparticles in primates
- Assay type: in vivo, non human primates
- Conditions used: male, monkey, in vivo; 25 mg/m2, M, 30 minute IV infusion
Recorded endpoint: half-life (h)
Write the answer as a number in h, unit excluded.

Notebook: CC(=O)O[C@@]12CO[C@@H]1C[C@H](O)[C@@]1(C)C(=O)[C@H](O)C3=C(C)[C@@H](OC(=O)[C@H](O)[C@@H](NC(=O)OC(C)(C)C)c4ccccc4)C[C@@](O)([C@@H](OC(=O)c4ccccc4)[C@H]21)C3(C)C [Conventional Docetaxel, docetaxel] , half-life read as 18
